Read-out: Lipase C (LIPC), LIPC (gene 3990)
Assay: LTEA_HepaRG_LIPC: Life Technologies and Expression Analysis (LTEA) Assay for Lipase C (LIPC) using HepaRG (AID 2283514)
Details: mRNA level, 48 h; actives raise or lower the signal
The source made the active and inactive calls. Rule for the calls: active = hit-call score of the fitted dose curve at least 0.9, where 1 is the maximum; inactive = score below 0.9.
Return exactly one item of y = active, n = inactive

O=c1[nH]c2ccc(S(=O)CCN3CCC(Cc4ccc(F)cc4)CC3)cc2o1 (configuration not stated); y
CC(C)=CCCC(C)CCO (configuration not stated); n
O=C(O)c1cccc(Oc2ccccc2)c1; n
O=c1n(CC2CO2)c(=O)n(CC2CO2)c(=O)n1CC1CO1 (configuration not stated); y

Asked: Kindly provide the recorded test outcome for the following molecule: C=CC(=C)CCC=C(C)C
Given back: n

Asked: Kindly provide the recorded test outcome for the following molecule: NC(=O)NO
Given back: n

Asked: Kindly provide the recorded test outcome for the following molecule: COc1ccc2sc(C(=O)Nc3nnn[nH]3)c(OC(C)C)c2c1
Given back: n

Asked: Kindly provide the recorded test outcome for the following molecule: CCOC(=O)COc1ccc2c(c1)CC(NCC(O)c1cccc(Cl)c1)CC2 (configuration not stated)
Given back: y

Asked: Kindly provide the recorded test outcome for the following molecule: CCCCC(CC)COC(=O)CCCCCCCCC(=O)OCC(CC)CCCC (configuration not stated)
Given back: n

----------
Read-out: Macrophage colony-stimulating factor (MCSF), CSF1 (gene 1435)
Assay: BSK_hDFCGF_MCSF: BioMAP Diversity Plus: hDFCGF Assay for Macrophage colony-stimulating factor (MCSF) Biomarker Activity (AID 2283060)
Settings: primary human foreskin fibroblasts; actives raise or lower the signal
Calls of active or inactive are those of the source. Rule for the calls: active = hit-call score of the fitted dose curve at least 0.9, where 1 is the maximum; inactive = score below 0.9.
Return exactly one item of active, inactive

CC1(C)C(=O)N(Br)C(=O)N1Br; inactive
Clc1nc(Cl)c(Cl)c(Cl)c1Cl; inactive

Asked: Kindly provide the recorded test outcome for the following compound: CC/C(=C\C(=N/O)C(N)=O)C(C)[N+](=O)[O-] (stereo unspecified)
Given back: inactive

Asked: Kindly provide the recorded test outcome for the following compound: Cn1c(=O)cc(Oc2ccc(F)cc2F)c2cnc(NCC(C)(C)O)nc21
Given back: active

Asked: Kindly provide the recorded test outcome for the following compound: CC(C)=CCCC(C)=CC=O
Given back: inactive

Asked: Kindly provide the recorded test outcome for the following compound: CC(C)=CCCC(C)CCO (stereo unspecified)
Given back: inactive

Asked: Kindly provide the recorded test outcome for the following compound: CNCc1ccc(NC(=O)c2c[nH]c3c2C(=O)CCC3)cc1
Given back: inactive

Asked: Kindly provide the recorded test outcome for the following compound: COC(=O)c1c(Cl)c(Cl)c(C(=O)OC)c(Cl)c1Cl
Given back: inactive

Asked: Kindly provide the recorded test outcome for the following compound: CCCCCCCCCCCCCCCO
Given back: inactive

----------
Test: BSK_KF3CT_SRB: Viability Assessment in the BioMAP Diversity Plus: KF3CT Assay (AID 2283069);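 note: total protein by sulforhodamine B staining as a cytotoxicity measure; read 24 h after compound addition; fitted for both signal gain and loss against DMSO baseline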
Details: primary human keratinocytes with fibroblasts
Calls of active or inactive are those of the source. Rule for the calls: active = hit-call score of the fitted dose curve at least 0.9, where 1 is the maximum; inactive = score below 0.9.
Return exactly one item of active, inactive

COC(=O)c1ccccc1O; inactive

Asked: Kindly provide the recorded test outcome for the following compound: Nc1cccc(N)c1
Given back: inactive

Asked: Kindly provide the recorded test outcome for the following compound: O=C(O)CC(O)C(=O)O (stereo unspecified)
Given back: inactive

Asked: Kindly provide the recorded test outcome for the following compound: O=C1CCCCCN1
Given back: inactive

Asked: Kindly provide the recorded test outcome for the following compound: CCOC(=O)CC(CC(=O)OCC)(OC(C)=O)C(=O)OCC
Given back: inactive

Asked: Kindly provide the recorded test outcome for the following compound: O=C(OC[C@H]1O[C@@H](OC(=O)c2cc(O)c(O)c(OC(=O)c3cc(O)c(O)c(O)c3)c2)[C@H](OC(=O)c2cc(O)c(O)c(OC(=O)c3cc(O)c(O)c(O)c3)c2)[C@@H](OC(=O)c2cc(O)c(O)c(OC(=O)c3cc(O)c(O)c(O)c3)c2)[C@@H]1OC(=O)c1cc(O)c(O)c(OC(=O)c2cc(O)c(O)c(O)c2)c1)c1cc(O)c(O)c(OC(=O)c2cc(O)c(O)c(O)c2)c1
Given back: inactive

Asked: Kindly provide the recorded test outcome for the following compound: O=C1CCC(N2C(=O)c3ccccc3C2=O)C(=O)N1 (stereo unspecified)
Given back: inactive

Asked: Kindly provide the recorded test outcome for the following compound: CC1(C)C(=O)N(Br)C(=O)N1Br
Given back: inactive

----------
Assay: CCTE_Shafer_MEA_dev_active_electrodes_number: CCTE's Neural Network Formation Assay for Number of Active Electrodes, Shafer Lab (AID 2284040);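 for AC50: potency for loss of active electrodes versus DMSO so lower counts are hits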
Inconclusive results are not listed. Calls of active or inactive are those of the source. The calls were made as follows: active = hit-call score of the fitted dose curve at least 0.9, where 1 is the maximum; inconclusive = response in the unintended direction; inactive = score below 0.9.
quantity: AC50

Sample records with AC50:
O=P(OC(CCl)CCl)(OC(CCl)CCl)OC(CCl)CCl; inactive
CC[C@H](C)C(=O)O[C@H]1C[C@@H](C)C=C2C=C[C@H](C)[C@H](CC[C@@H]3C[C@@H](O)CC(=O)O3)[C@H]21; 1760 nM (active)
O=C1CCC(N2C(=O)c3ccccc3C2=O)C(=O)N1 (stereo unspecified); inactive
CC[C@H]1OC(=O)[C@H](C)[C@@H](O[C@H]2C[C@@](C)(OC)[C@@H](O)[C@H](C)O2)[C@H](C)[C@@H](O[C@@H]2O[C@H](C)C[C@H](N(C)C)[C@H]2O)[C@](C)(O)C[C@@H](C)C(=O)[C@H](C)[C@@H](O)[C@]1(C)O; inactive
NC(=O)NO; inactive

Let us examine a further case.
Asked: Requested field: AC50. Item: CNCc1ccc(NC(=O)c2c[nH]c3c2C(=O)CCC3)cc1
Given back: 1980 nM (active)

----------
Experiment: CEETOX_H295R_PROG: CeeTox H295R High-throughput Steroidogenesis Assay for Progesterone (PROG) (AID 2283442)
Settings: actives raise or lower the signal
The source made the active and inactive calls. The calls were made as follows: active = hit-call score of the fitted dose curve at least 0.9, where 1 is the maximum; inactive = score below 0.9.
Return exactly one item of 1 (active), 0 (inactive)

Some solved entries appear below for comparison.
CCC(C)(C)C(=O)O[C@H]1C[C@@H](C)C=C2C=C[C@H](C)[C@H](CC[C@@H]3C[C@@H](O)CC(=O)O3)[C@H]21; 1
CCCCCCCCO; 0
COc1cccc(-c2ccc(/C=C\CN3CCCCCC3)cc2Cl)c1; 0
CCOC(=O)c1ccc(C2CCC(NC[C@H](O)COc3ccc(O)c(NS(C)(=O)=O)c3)CC2)cc1 (some centres not stated); 1
CC(C)CC(C)(O)C#CC(C)(O)CC(C)C (configuration not stated); 0

Could you now consider this next compound?
Asked: Kindly provide the recorded test outcome for the following compound: Nc1ccc(Nc2ccccc2)cc1
Given back: 0

----------
Experiment: APR_HepG2_StressKinase_24hr: Apredica 24-hour HepG2 Assay for Stress Kinase (AID 2282922)
Conditions: HepG2 stress kinase (phospho-c-Jun) imaging, actives raise or lower the signal
Active and inactive are the calls of the source. The calls were made as follows: active = hit-call score of the fitted dose curve at least 0.9, where 1 is the maximum; inactive = score below 0.9.
Return exactly one item of active, inactive

O=C1CCC(N2C(=O)c3ccccc3C2=O)C(=O)N1 (centres undefined); inactive
CCCCCCCCCCCCc1ccccc1; inactive
COCCOCCOCCOC; inactive
Cc1[nH]cnc1C[C@H]1CCc2c(C)c3ccccc3n2C1=O; active

Asked: Kindly provide the recorded test outcome for the following compound: Cc1ccc(C)c(O)c1
Given back: inactive

Asked: Kindly provide the recorded test outcome for the following compound: COCCOc1cc2cc(C(=O)NC3CCN(C(C)C)CC3)n(CC(=O)Nc3ccc(Cl)cn3)c2cn1
Given back: inactive

Asked: Kindly provide the recorded test outcome for the following compound: O=C(O)c1cc(N=Nc2ccc(S(=O)(=O)Nc3ccccn3)cc2)ccc1O
Given back: inactive

Asked: Kindly provide the recorded test outcome for the following compound: O=C(NS(=O)(=O)/C=C/c1ccccc1)c1ccc(F)cc1Cl
Given back: inactive

Asked: Kindly provide the recorded test outcome for the following compound: Nc1ccc(Nc2ccccc2)cc1
Given back: inactive

----------
Test: ATG_TGFb_CIS: Attagene CIS-FACTORIAL HepG2 Assay for human Transforming Growth Factor (TGF) (AID 2282967)
Conditions: HepG2 Attagene CIS TGFb reporter, mRNA transcription; actives raise or lower the signal
The source made the active and inactive calls. The calls were made as follows: active = hit-call score of the fitted dose curve at least 0.9, where 1 is the maximum; inactive = score below 0.9.
Return exactly one item of active, inactive

Some solved entries appear below for comparison.
CC(=O)OC[C@H]1O[C@@](COC(C)=O)(O[C@H]2O[C@H](COC(C)=O)[C@@H](OC(C)=O)[C@H](OC(C)=O)[C@H]2OC(C)=O)[C@@H](OC(C)=O)[C@@H]1OC(C)=O; inactive
CNS(=O)(=O)c1cc(C(=O)N2CCC(CCN3C4CCC3CC(n3c(C)nc5ccccc53)C4)(c3cccc(F)c3)CC2)c(Cl)cc1F (stereo not drawn); inactive
CC1(C)C(=O)N(Br)C(=O)N1Br; inactive
CCCCCCc1ccc(O)cc1O; inactive
C1=CCCC=CCCC=CCC1; inactive

Asked: Kindly provide the recorded test outcome for the following molecule: CC(=O)c1ccc2c(c1)[C@H](NC(=O)c1ccc(F)cc1)[C@@H](O)C(C)(C)O2
Given back: inactive

Asked: Kindly provide the recorded test outcome for the following molecule: COC(=O)c1ccccc1O
Given back: inactive

Asked: Kindly provide the recorded test outcome for the following molecule: CCCC(=O)OCC
Given back: inactive

Asked: Kindly provide the recorded test outcome for the following molecule: O=C1CCC(N2C(=O)c3ccccc3C2=O)C(=O)N1 (stereo not drawn)
Given back: inactive

Asked: Kindly provide the recorded test outcome for the following molecule: CCOC(=O)COc1ccc2c(c1)CC(NCC(O)c1cccc(Cl)c1)CC2 (stereo not drawn)
Given back: inactive
